# Test system: HT29 colon
# ASSAY_OVERVIEW: NCI-60 one-dose screen, 48 h
# CONDITION: 10 µM unless noted
About 83,000 compounds went through this panel and 20% of them were active in at least one assay; those are over-represented in the sample as a whole. The source made the active and inactive calls. Rule for the calls: active = growth percent below 10; inactive = the rest.
Possible outcomes: active, inactive

COMPOUND	LABEL_CLASS
C=C1C(=O)O[C@H]2[C@H]1CC/C(COC(=O)c1cc3cc(Cl)ccc3[nH]1)=C\CC[C@@]1(C)O[C@@H]21	active
Cc1ccc(-c2nc(N3CCNCC3)c3oc(-c4ccc(C)cc4)nc3n2)cc1	active
CCOC(=O)c1c(C)nc2c(c1N)/C(=C/c1ccc(OC)cc1)C(=O)N2Cc1ccccc1	inactive
Cc1ccc(CNc2c3ccccc3nc3ccccc23)cc1	inactive
Cn1cc(-c2nn3cc(-c4cccs4)nc3s2)c2cc(F)ccc21	active
CCCCCCCCCCCCCCCCCC1=NC(C)(C)CN1CC(C)O (stereo not given)	active
C[C@H](C(=O)N(CCc1ccc(Cl)c(Cl)c1)Cc1cncs1)[C@@H]1CC[C@H](C[C@H](C)n2cc(CN3CCC(c4ccc(Cl)cc4)CC3)nn2)O1	inactive
Cc1ccc(-c2csc(NC(=O)c3ccccc3CN3C(=O)c4ccccc4C3=O)n2)cc1	inactive
CCN1C(=O)N(CC)C2Nn3c(s/c(=C\c4ccccc4Br)c3=O)=NC21 (stereo not given)	active
CCN1CCN(C(=O)[C@]23CC[C@@H](C)[C@H](C)[C@@H]2C2=CC[C@@H]4[C@@]5(C)C/C(=C/c6cccnc6)C(=O)C(C)(C)[C@@H]5CC[C@@]4(C)[C@]2(C)CC3)CC1	inactive
[2H]C([2H])([2H])Oc1ccc(F)cc1/C=C/C(=O)/C=C(/C=C/c1cc(F)ccc1OC([2H])([2H])[2H])OB(F)F	inactive
Cc1ccc2nc(/C(C#N)=C(/CCCO)NC(Cc3ccccc3)C(=O)OCc3ccccc3)[nH]c(=O)c2c1 (stereo not given)	inactive
COc1ccc(Cn2cc3c(c2-c2ccccc2)CCc2cnoc2-3)cc1	inactive
Cc1cccc(-c2nc(Nc3ccc4ncsc4c3)c3ccccc3n2)n1	inactive
C=C1C(=O)O[C@H]2[C@H]1CC/C(COC(=O)/C=C\C(=O)NCc1ccc(Cn3c(=O)sn(CCCl)c3=O)cc1)=C\CC[C@@]1(C)O[C@@H]21	inactive
C#COc1cccc(Nc2ncnc3cc(NC(=O)[C@@H](C)Cl)ccc23)c1	active
Cc1n[nH]c2ccc(Br)cc2c1=O	inactive
OCCNCCNC(Cc1ccc(Cl)cc1)c1ccccc1 (stereo not given)	inactive
CC1=C(CCC(C)NCc2ccc(OCCCN3CCCCC3)cc2)C(C)(C)CCC1 (stereo not given)	active
COc1cc2nc3sc(C(=O)Nc4ccc(C(=O)OC(C)C)cc4)c(C(=O)Nc4ccc(Cl)cc4C)n3c(=O)c2cc1OC	inactive
C=C(CNCCc1ccc(O)cc1)[C@@H]1CC[C@]2(CO)CC[C@]3(C)[C@H](CC[C@@H]4[C@@]5(C)CCC(=O)C(C)(C)[C@@H]5CC[C@]43C)[C@@H]12	active
Cn1ccc(=O)nc1	inactive
Cc1cccc2c1C[C@@]1(C2=O)C(c2ccc(C(C)(C)C)cc2)=NOS1=O (stereo not given in full)	inactive
COc1ccc(-c2n[nH]c(=O)c3nc(NC(=S)Nc4ccc(Oc5ccccc5)cc4)sc23)cc1	inactive
COc1cc2c(cc1OCCCCN1CCN(C(=S)SCCC(C#N)(c3ccccc3)c3ccccc3)CC1)N=C[C@@H]1CCCN1C2=O	active
C=C(CNCCO)[C@@H]1CC[C@]2(CO)CC[C@]3(C)[C@H](CC[C@@H]4[C@@]5(C)CCC(N)C(C)(C)[C@@H]5CC[C@]43C)[C@@H]12 (stereo not given in full)	active
C/C=C(\C)C(=O)N[C@H]1C(O)C[C@]2(C)C3CC[C@@]4(C)C(CC[C@@H]4C(C)N(C)C)C3CCC2C1O (stereo not given in full)	active
CCOC(=O)C#Cc1c(C(=O)OCC)nnn1Cc1ccc(C(F)(F)F)cc1	active
O=S(=O)(NCCCNc1nccc(-c2c(-c3cccc(F)c3)nc3occn23)n1)c1ccc(F)cc1	inactive
COc1cc(C(=O)c2c(-c3ccccc3)oc3c(OC)cccc23)cc(OC)c1OC	active
O=C(Nc1ncccc1OCc1ccccc1)NC1CCCCCC1	inactive
Cc1ncc(C(=O)Nc2ccc(CN3CCN(C)CC3)c(C(F)(F)F)c2)cc1C#Cc1cnc(N)c2ncccc12	active
COc1cc(/C=C/C(=O)/C=C(O)/C=C/c2ccc(OC(=O)C34CC5CC(CC(C5)C3)C4)c(OC)c2)ccc1OC(=O)C12CC3CC(CC(C3)C1)C2	inactive
CN1CCN(C(=O)C(C)(C)c2ccc(C(=O)Nc3cn4cc(-c5ccncc5)ccc4n3)cc2)CC1	active
CC(C)(C)n1cc(-c2ccnc(NCCCNS(=O)(=O)c3cccc4ccccc34)c2)c(-c2cccc(F)c2)n1	inactive
